assay: Ratio of drug uptake in olfactory bulb to striatum in Sprague-Dawley rat at 1 to 3 MBq, iv after 30 mins by gamma counting; settings: in vivo, 0.5 h
OBSERVED PROPERTY: Ratio
No unit in the answer, please; the number alone is enough.

Before answering, review these 2 worked examples.
[[record]]
compound = "CCN(CC)C(=O)C1CCCc2c1c1cc(OC)c(F)cc1n2CC[18F] (stereo unspecified)"
observed_measurement = 3.5

[[record]]
compound = "CN(Cc1ccccc1)C(=O)C1CCCc2c1c1ccccc1n2CC[18F] (stereo unspecified)"
observed_measurement = 3.4


Return reported Ratio; argument: CC(C)N(C)C(=O)C1CCCc2c1c1ccccc1n2CC[18F] (stereo unspecified)
3.18

Return reported Ratio; argument: CCN(CC)C(=O)C1CCCc2c1c1ccc(OC)cc1n2CC[18F] (stereo unspecified)
4.33

Return reported Ratio; argument: CCN(CC)C(=O)C1CCCc2c1c1cc(F)c(OC)cc1n2CC[18F] (stereo unspecified)
2.78

Return reported Ratio; argument: CCN(Cc1ccccc1)C(=O)C1CCCc2c1c1ccccc1n2CC[18F] (stereo unspecified)
3.4

----------
Catalogue of Drug uptake readings, one per entry.
system: Brain; assay: Biodistribution in Sprague-Dawley rat whole brain at 1 to 3 MBq, iv after 2 mins by gamma counting; type: ADME, organism-based; details: in vivo
Number in % ID/g, nothing else.

Before answering, review these 2 worked examples.
[[record]]
compound = "CCCN(CCC)C(=O)C1CCCc2c1c1ccccc1n2CC[18F] (stereo not drawn)"
readout_units = "% ID/g"
observed_measurement = 0.49

[[record]]
compound = "O=C(C1CCCc2c1c1ccccc1n2CC[18F])N1CCCCC1 (stereo not drawn)"
readout_units = "% ID/g"
observed_measurement = 0.51


Lab note: next compound to report on.
Return reported Drug uptake; argument: CCN(CC)C(=O)C1CCCc2c1c1c(F)cccc1n2CC[18F] (stereo not drawn)
0.5
